- System Tested: T1, recombinant human domain 1-3His6 of the cation-independent mannose-6-phosphate receptor (human, UniProt P11717 41-467)
- T1 construct: Biotinylated (NHS-PEG4-biotin) for BLI; Glycosylated; also called hDom1-3His6; hCI-M6PRD1-D3
- Protocol Notes: BLI exp 2, dissoc pH 7.4
pKd: −log10 of the molar value.

Binder	pKd
anti-CI-M6PR VHH10 (VHH, His6-tagged; made in Pichia pastoris) VHH: QVQLQESGGGSVQAGGSLRLSCAPAGRTFSRIRMGWFRQAPGKEREFVAAISSGGLSYYADSMKGRFTISRDNAKNTVLLQMNSLEPDDTAVYYCAAVLNDYIDDYVARNPTLYDYWGQGTQVTVSS	7.33
anti-CI-M6PR VHH6 (VHH, His6-tagged; made in E. coli) VHH: QVQLQESGGGLVQAGGSLRLSCAVSGSISSIGGMGWFRQAPGKQREFVAVILNNSGMTSYADSVKGRFTISRGNSKNTMYLQMNSLKPEDTAVYYCNYSGYWGQGTQVTVSS	8.32
anti-CI-M6PR VHH9 (VHH, His6-tagged; made in Pichia pastoris) VHH: QVQLQESGGGLVQAGGSLRLSCAASGTILSIKTMGWYRQAPGKEREWVATITSSSIPMYADSVKGRFTISRDDAKNTVYLQMNSLKPEDTGVYYCNAPWTDYWGQGTQVTVSS	9.55
anti-CI-M6PR VHH4 (VHH, His6-tagged; made in Pichia pastoris) VHH: QVQLQESGGGLVQAGGSLRLSCAASGRTFSNYVMGWFRQAPGKEREFVGSISQGGKMTYYPDSVKGRFTISRDNAKNTMYLQMDGLKPEDTAVYYCAVSRGYPMVRVSEVDYWGQGTQVTVSS	8.63
anti-CI-M6PR VHH7 (VHH, His6-tagged (Pichia pastoris)) VHH: QVQLQESGGGLVQPGGSLRLSCAASGIIFSDNRMDWYRQAPGKQREWVATLASYGWKTYADSVKGRFTISRDNTKNTVYLRMNSLKPEDTAVYYCKASSPVLNDIWGQGTQVTVSS	8.04
anti-CI-M6PR VHH3 (VHH, His6-tagged; made in Pichia pastoris) VHH: QVQLQESGGGLVQPGGSLRLSCAAFGLNFKNFDMIWFRQAPGEERDIVAAISSSSSTIWYEDSVKGRFTISRDNAKNTVYLQMNSLKPEDTAVYYCAAALTSWRRPDYWGQGTQVTVSS	8.15
anti-CI-M6PR VHH11 (VHH, His6-tagged; made in Pichia pastoris) VHH: QVQLQESGGGLVQAGDSLKLSCTASGPTFSEITGGWFRQVPGKEREFVASISSTGITTYYTDSVKGRFTVSRDNAKNTMYLQMNSLKPEDTGVYYCAARSTSRSIAITVGYDYWGQGTQVTVSS	7.29
